# STUDY SYSTEM: SL1 wt RNA
# PROTOCOL: NMR-based KD estimation, ligand-detected 1D-1H titration
# Assay type: binding, SARS-CoV-2
# TEST PARAMETERS: Suppl. Table 7; ligand constant at 100, SL1 wt RNA concentration 0-200; read-out: KDest
Listed below: pKd values for each entry.
Note: pKd values are expressed as the negative base-10 logarithm of concentration in M.

COc1cc(OC)c2nc(NC(=O)CN3CCC[C@@H](N)C3)sc2c1
4.09
COc1cc(OC)c2nc(NC(=O)CN3CCN(C)CC3)sc2c1
4.12
CCN(CCN[C@H]1CCCN(CC(=O)Nc2nc3ccc(OC)cc3s2)C1)c1cccc(O)c1
3.28
COc1ccc(-c2nnc(NC(=O)CN(C)C)s2)cc1OC
3.84
COc1ccc2nc(NC(=O)CN3CCC[C@H](N)C3)sc2c1
3.66
COc1cc(OC)c2nc(NC(=O)CN(C)C)sc2c1
3.97
COc1ccc(-c2nnc(NC(=O)CN3CCC[C@H](N)C3)s2)cc1OC
4.11
COc1cc(OC)c2nc(NC(=O)CN3CCNCC3)sc2c1
4.08

Need pKd of COc1ccc2nc(NC(=O)CN3CCC[C@@H](N)C3)sc2c1 , thanks.
3.77

Fill in the blank: the reported pKd of COc1ccc(-c2nnc(NC(=O)CN3CCC[C@@H](N)C3)s2)cc1OC is ____.
4.04

Give the measured pKd of COc1ccc2nc(NC(=O)CN3CCC[C@H](NCCN(C)c4cccc(O)c4)C3)sc2c1 .
3.52

I would be grateful if you could share the reported pKd for CCN(CCN[C@@H]1CCCN(CC(=O)Nc2nc3ccc(OC)cc3s2)C1)c1cccc(O)c1 .
3.13

Looking for the measured pKd of COc1ccc2nc(NC(=O)CN3CCNCC3)sc2c1 , can you help?
3.79

Please report the recorded pKd for COc1cc(OC)c2nc(NC(=O)CN3CCC[C@H](N)C3)sc2c1 .
3.96

====

# Test system: SL1 (wt)-Nanoluciferase mRNA
# Assay type: biochemical, SARS-CoV-2
QUANTITY NAME: effect on translation of SL1 wt mRNA, in words

COc1ccc2nc(NC(=O)CN3CCC[C@H](N)C3)sc2c1 [A.36]
nonspecific effects
COc1ccc(-c2nnc(NC(=O)CN(C)C)s2)cc1OC [A.31]
nonspecific effects

====

# Test system: SARS-CoV-2 SL1 RNA (SL1 wt)
# Type: binding
# TEST PARAMETERS: ligand-detected NMR, SL1 wt
QUANTITY NAME: FBS binding to SL1, in words

COc1ccc(-c2nnc(N)s2)cc1
no hit
CC(=O)Nc1nc2ccccc2s1
only minor effects
CC(C)(C)C(=O)Nc1nc2ccccc2s1
only minor effects
CC(C)(C)C(=O)Nc1nc2ccc(Br)cc2s1
only minor effects

Let us examine a further case.
For the compound shown here, COc1ccc(-c2nnc(N)s2)cc1OC , give the reported FBS binding to SL1, in words.
no hit

====

# Tested on: SL1 RNA
# PROTOCOL: RNA-detected NMR binding site mapping (2D-1H,1H-TOCSY and 1D-1H)
# Parameters: species or system SARS-CoV-2
# TEST PARAMETERS: 2D TOCSY; RNA 150 μM, compound 1 mM, 298 K
Catalogue of 1H,1H CSPs [ppm] U25H5-H6 values
The reply should contain only the number, in ppm.

A selection of reference data follows.
COc1ccc2nc(NC(=O)CN3CCC[C@H](N)C3)sc2c1
0.0120
CNC(=O)Nc1nc2c(OC)cc(OC)cc2s1
0.0045
COc1ccc2nc(NC(=O)CN(C)C)sc2c1
0.0361

I would be grateful if you could share the reported 1H,1H CSPs [ppm] U25H5-H6 for CNC(=N)Nc1nc2ccc(OC)cc2s1 .
0.0099

1H,1H CSPs [ppm] U25H5-H6 for COc1ccc(-c2nnc(NC(=O)CN(C)C)s2)cc1OC ?
0.0122

Recorded 1H,1H CSPs [ppm] U25H5-H6 for CC(=O)c1ccc(NC(=O)CN2CCCC2)cc1 , please?
0.0085

Tell me the measured 1H,1H CSPs [ppm] U25H5-H6 of CNC(=O)Nc1nc2c(O)cc(O)cc2s1 , please.
0.0020

Which value of 1H,1H CSPs [ppm] U25H5-H6 has been reported for CNC(=O)Nc1nc2ccc(OC)cc2s1 in the records?
0.0160

====

# Test system: SARS-CoV-2 SL1 RNA (SL1 wt)
# Assay type: binding
# TEST PARAMETERS: CPMG 100 vs 5 ms; 10 μM SL1 wt, 200 μM ligand, pH 6.2
QUANTITY NAME: T2 reduction [%] (%)
Respond numerically; units are % and should not be typed.

Record excerpt, results attached:
COc1ccc2nc(NC(=O)CN(C)C3CC(C)(C)NC(C)(C)C3)sc2c1
76.80
CN(C)CC(=O)Nc1nnc(-c2cc([N+](=O)[O-])cc([N+](=O)[O-])c2)s1
93.02
CNC(=N)Nc1nc2ccc(OC)cc2s1
77.83
COc1ccc2nc(NC(=O)CN3CCC[C@@H](NCCN(C)c4cccc(O)c4)C3)sc2c1
72.85
CN(C)CC(=O)Nc1nc2ccc(S(C)(=O)=O)cc2s1
46.43

Entry CN(C)CC(=O)Nc1nnc(-c2cc(F)c(Cl)c([N+](=O)[O-])c2Cl)s1 : reported T2 reduction [%] = ?
91.98

I'd like to know its T2 reduction [%]. The molecule in question is COc1ccc2nc(NC(=O)CN(C)C)[nH]c2c1
87.00

Entry CCN(CCN[C@H]1CCCN(CC(=O)Nc2nc3ccc(OC)cc3s2)C1)c1cccc(O)c1 : reported T2 reduction [%] = ?
72.85

Returns the measured T2 reduction [%] for the input molecule. Input: COc1ccc(-c2nnc(NC(=O)CN3CCC[C@H](N)C3)s2)cc1OC
96.61

====

# System: SL1 RNA
# PROTOCOL: RNA-detected NMR binding site mapping (2D-1H,1H-TOCSY and 1D-1H)
# Design: species or system SARS-CoV-2
# TEST PARAMETERS: 2D TOCSY; RNA 150 μM, compound 1 mM, 298 K
QUANTITY NAME: 1H,1H CSPs [ppm] U13H5-H6 (ppm)
Reply numerically in ppm, unit not repeated.

CC(=O)c1ccc(NC(=O)CN2CCCC2)cc1 [B]
0.0256
COc1ccc2nc(NC(=O)CN3CCC[C@H](N)C3)sc2c1 [A.36]
0.0308
CNC(=O)Nc1nc2c(OC)cc(OC)cc2s1 [A.11]
0.0216
COc1ccc2nc(NC(=O)CN(C)C)sc2c1 [A.2]
0.0110
CNC(=O)Nc1nc2ccc(OC)cc2s1 [A]
0.0242
CNC(=O)Nc1nc2c(O)cc(O)cc2s1 [A.13]
0.0209
CNC(=N)Nc1nc2ccc(OC)cc2s1 [A.4]
0.0999

Lab note: next compound to report on.
State the recorded 1H,1H CSPs [ppm] U13H5-H6 for this entry: COc1ccc(-c2nnc(NC(=O)CN(C)C)s2)cc1OC [A.31]
0.0206

====

# System: SL1 RNA
# PROTOCOL: RNA-detected NMR binding site mapping (2D-1H,1H-TOCSY and 1D-1H)
# Design: species or system SARS-CoV-2
# TEST PARAMETERS: 2D TOCSY; RNA 150 μM, compound 1 mM, 298 K
Measured 1H,1H CSPs [ppm] U18H5-H6 values are reported for all entries that follow.
Reply numerically in ppm, unit not repeated.

Below, 7 compounds whose answers are already recorded.
CC(=O)c1ccc(NC(=O)CN2CCCC2)cc1 [B]
0.0064
CNC(=O)Nc1nc2c(O)cc(O)cc2s1 [A.13]
0.0022
COc1ccc(-c2nnc(NC(=O)CN(C)C)s2)cc1OC [A.31]
0.0021
CNC(=O)Nc1nc2ccc(OC)cc2s1 [A]
0.0010
COc1ccc2nc(NC(=O)CN(C)C)sc2c1 [A.2]
0.0071
CNC(=N)Nc1nc2ccc(OC)cc2s1 [A.4]
0.0191
CNC(=O)Nc1nc2c(OC)cc(OC)cc2s1 [A.11]
0.0043

Let us examine a further case.
Give the measured 1H,1H CSPs [ppm] U18H5-H6 of COc1ccc2nc(NC(=O)CN3CCC[C@H](N)C3)sc2c1 [A.36] .
0.0039

====

# Test system: SL1 RNA
# PROTOCOL: RNA-detected NMR binding site mapping (2D-1H,1H-TOCSY and 1D-1H)
# Set-up: species or system SARS-CoV-2
# TEST PARAMETERS: 2D TOCSY; RNA 150 μM, compound 1 mM, 298 K
Recorded 1H,1H CSPs [ppm] C32H5-H6, one value per entry.
Note: unit ppm is implicit; provide only the numeric part.

Example cases with answers are listed next.
COc1ccc(-c2nnc(NC(=O)CN(C)C)s2)cc1OC
0.0130
CNC(=O)Nc1nc2c(O)cc(O)cc2s1
0.0082

Lab note: need 1H,1H CSPs [ppm] C32H5-H6 with SL1 RNA for entry CNC(=O)Nc1nc2ccc(OC)cc2s1 , please look it up.
0.0124

Lab note: need 1H,1H CSPs [ppm] C32H5-H6 with SL1 RNA for entry CNC(=O)Nc1nc2c(OC)cc(OC)cc2s1 , please look it up.
0.0063

Hello, I am looking for reported 1H,1H CSPs [ppm] C32H5-H6 with SL1 RNA for COc1ccc2nc(NC(=O)CN3CCC[C@H](N)C3)sc2c1 . Could you help?
0.0186

Given the entry CC(=O)c1ccc(NC(=O)CN2CCCC2)cc1 , what 1H,1H CSPs [ppm] C32H5-H6 was observed with SL1 RNA?
0.0336
